meta.source: a melting point compilation (Tetko et al.; mined from patent text by program, amines drawn as free bases though some values may be those of a salt)

Measured melting point by item
measured.parameter: melting point

>  <compound>
CC(=O)c1sc(Nc2cc[nH]n2)nc1C

>  <measured.parameter>
melting point

>  <endpoint.result>
224 to 227 °C

$$$$
>  <compound>
Cc1nc(-c2cn(-c3cc(C(F)(F)F)cc(-c4ccc(C(F)(F)F)cc4)n3)cn2)sc1S(=O)(=O)NC(C)(C)C

>  <measured.parameter>
melting point

>  <endpoint.result>
> 250 °C

$$$$
>  <compound>
COc1ccc(COc2cccc(C(=O)Nc3ccc(S(C)=O)cc3)c2)cc1 (configuration not stated)

>  <measured.parameter>
melting point

>  <endpoint.result>
135 to 136 °C

$$$$
>  <compound>
Cc1nc2ccccc2n1CCc1ccccc1

>  <measured.parameter>
melting point

>  <endpoint.result>
104 to 106 °C

$$$$
>  <compound>
O=C(Nc1cnn2ccccc12)C1CC1

>  <measured.parameter>
melting point

>  <endpoint.result>
159 to 162 °C

$$$$
>  <compound>
CC(C)(C)OC(=O)N[C@@H](CCCCN=C=O)C(=O)N1CC(F)(F)C(F)(F)C1

>  <measured.parameter>
melting point

>  <endpoint.result>
68 to 70 °C

$$$$
>  <compound>
Clc1ccc([C@H]2C[C@@H]3CC[C@@H]4[C@H]2C(=NOCc2ccccc2)CN34)cc1Cl

>  <measured.parameter>
melting point

>  <endpoint.result>
72 to 74 °C

$$$$
>  <compound>
COC(=O)N=C(N)OC

>  <measured.parameter>
melting point

>  <endpoint.result>
36 to 39.5 °C

$$$$
>  <compound>
COc1ccc(CNC(=O)c2sc3ccccc3c2Br)cc1

>  <measured.parameter>
melting point

>  <endpoint.result>
123 to 124 °C

$$$$
>  <compound>
CC(C)(O)CCC[C@@](C)(CC#CC(O)(C(F)(F)F)C(F)(F)F)[C@H]1CC[C@H]2[C@@H](O)CCC[C@]12C

>  <measured.parameter>
melting point

>  <endpoint.result>
146 to 147 °C

$$$$
>  <compound>
O=C1Nc2cc3c(cc2C12COc1cc4c(cc12)CCO4)OCCO3 (configuration not stated)

>  <measured.parameter>
melting point

>  <endpoint.result>
> 250 °C

$$$$
>  <compound>
C=Cc1cc(C(F)(F)F)ccc1-c1cc(Oc2cccc3sc(NC(C)=O)nc23)ncn1

>  <measured.parameter>
melting point

>  <endpoint.result>
234 to 237 °C

$$$$
